System: VDR homodimer (NR concentration 270 nM)
assay-method-text: PBM binding z-score (relative to random genomic background probes); higher = stronger binding; sequences stand for … in GC…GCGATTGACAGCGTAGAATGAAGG
measured-property: PBM binding z-score
Enter the number alone.

sequence_string=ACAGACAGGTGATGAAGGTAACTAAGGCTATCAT target_entity="VDR homodimer (NR concentration 270 nM)" measured_property="PBM binding z-score" endpoint_value=-0.317
sequence_string=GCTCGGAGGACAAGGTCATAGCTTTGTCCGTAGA target_entity="VDR homodimer (NR concentration 270 nM)" measured_property="PBM binding z-score" endpoint_value=2.26
sequence_string=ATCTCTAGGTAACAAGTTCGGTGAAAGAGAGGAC target_entity="VDR homodimer (NR concentration 270 nM)" measured_property="PBM binding z-score" endpoint_value=1.22
sequence_string=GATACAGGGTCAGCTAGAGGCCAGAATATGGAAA target_entity="VDR homodimer (NR concentration 270 nM)" measured_property="PBM binding z-score" endpoint_value=1
sequence_string=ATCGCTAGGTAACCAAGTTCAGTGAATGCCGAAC target_entity="VDR homodimer (NR concentration 270 nM)" measured_property="PBM binding z-score" endpoint_value=1.7
sequence_string=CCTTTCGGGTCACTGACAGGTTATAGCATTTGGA target_entity="VDR homodimer (NR concentration 270 nM)" measured_property="PBM binding z-score" endpoint_value=1.19
sequence_string=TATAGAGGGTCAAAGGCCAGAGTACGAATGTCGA target_entity="VDR homodimer (NR concentration 270 nM)" measured_property="PBM binding z-score" endpoint_value=1.73
sequence_string=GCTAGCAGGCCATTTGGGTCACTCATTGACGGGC target_entity="VDR homodimer (NR concentration 270 nM)" measured_property="PBM binding z-score" endpoint_value=0.121

Given `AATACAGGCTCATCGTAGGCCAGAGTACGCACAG` , state its recorded PBM binding z-score.
0.118

Similarly, `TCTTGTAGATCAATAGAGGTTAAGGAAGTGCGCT` ?
0.208

Similarly, `GCAGATAGGTGAAACGCAGGTAACTCAGGGTGGC` ?
-0.593

Similarly, `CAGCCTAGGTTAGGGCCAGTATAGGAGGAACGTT` ?
-0.636

Similarly, `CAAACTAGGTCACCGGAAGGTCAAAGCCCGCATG` ?
3.25

Similarly, `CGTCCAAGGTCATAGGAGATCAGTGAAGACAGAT` ?
3.14

Similarly, `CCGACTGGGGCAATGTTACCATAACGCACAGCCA` ?
-0.569

Similarly, `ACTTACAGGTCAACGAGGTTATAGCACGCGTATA` ?
4.27

Similarly, `CCTACTGGGCCACGATAGGTCATTGATTCAGTGA` ?
0.0413

Similarly, `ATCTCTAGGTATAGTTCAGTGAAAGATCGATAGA` ?
1.12

Similarly, `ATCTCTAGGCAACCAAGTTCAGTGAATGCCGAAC` ?
2.3

Similarly, `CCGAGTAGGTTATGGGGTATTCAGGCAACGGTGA` ?
0.274

Similarly, `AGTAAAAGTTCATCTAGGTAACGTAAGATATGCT` ?
4.83

Similarly, `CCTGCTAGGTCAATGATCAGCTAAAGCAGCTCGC` ?
-0.421

Similarly, `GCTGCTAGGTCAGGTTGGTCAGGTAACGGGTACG` ?
0.789

Similarly, `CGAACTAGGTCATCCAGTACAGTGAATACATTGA` ?
2.24

Similarly, `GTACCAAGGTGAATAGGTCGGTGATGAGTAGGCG` ?
0.177

Similarly, `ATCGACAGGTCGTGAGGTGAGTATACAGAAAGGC` ?
0.435
